# Test system: A498 renal
# assay_remarks: NCI tumour cell line growth inhibition, 48 h
result_type: TGI (µM)
Provide the reading as a plain figure in µM.

The examples below pair each entry with its known result.
smiles_string=C=CC(=O)N[C@@H]1CN(c2nc(Nc3cn(C)nc3OC)c3ncn(C)c3n2)C[C@H]1F result_type=TGI meas_value=67.7
smiles_string=Nc1n[n+]([O-])c2cc([N+](=O)[O-])ccc2[n+]1[O-] result_type=TGI meas_value=36.6
smiles_string=CC(=N/NC(=S)N1CCCCCC1)/C(C)=N\NC(=S)N1CCCCCC1 result_type=TGI meas_value=3.47

Okay, next one:
Form field: reported TGI of O=C(NC1CCN(Cc2ccccc2)CC1)c1cc(-c2cccnc2)nc2ccc(Cl)cc12
5.49
